system-name: GCH1 F122A mutant (Homo sapiens, UniProt P30793, F122A)
Construct: The hGCH1 (42-250, N-terminal 6xHis Tag and TEV cleavage site); 6xHis (N); TEV cleavage site (N)
assay-method-text: protein-detected NMR titration (1H,13C HMQC), F122A mutant
result-type: Kd (µM)
Numbers only here, please. The scale is µM.

Name the recorded Kd for Nc1nc2c(ccn2C2OC(COP(=O)(O)OP(=O)(O)OP(=O)(O)O)C(O)C2O)c(=O)[nH]1 (stereo not shown) [7-deaza-GTP] .
669

* * *

system-name: GCH1 (Homo sapiens)
Construct: The hGCH1 (42-250, N-terminal 6xHis Tag and TEV cleavage site); 6xHis (N); TEV cleavage site (N); made in house; host or cells: E. coli BL21(DE3)
assay-method-text: protein-detected NMR titration (1H,13C HMQC), wild-type GCH1
Type: binding
result-type: Kd (µM)
Supply the numeric figure in µM, leaving out any unit text.

What does the record list as Kd for Nc1nc2c(ccn2C2OC(COP(=O)(O)OP(=O)(O)OP(=O)(O)O)C(O)C2O)c(=O)[nH]1 (stereo not shown) ?
798

* * *

system-name: GCH1 (Homo sapiens, UniProt P30793)
Construct: The hGCH1 (42-250, N-terminal 6xHis Tag and TEV cleavage site); 6xHis (N); TEV cleavage site (N); made in house; host or cells: E. coli BL21(DE3)
Sequence (P30793 42-250): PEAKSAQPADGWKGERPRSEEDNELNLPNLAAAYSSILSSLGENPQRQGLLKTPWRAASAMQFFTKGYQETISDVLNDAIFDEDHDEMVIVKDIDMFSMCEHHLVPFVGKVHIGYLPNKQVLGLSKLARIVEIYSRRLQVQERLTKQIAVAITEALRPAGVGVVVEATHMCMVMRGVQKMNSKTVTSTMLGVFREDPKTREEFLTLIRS
assay-method-text: STD-NMR titration of 7-deaza-GTP to GCH1 (initial slopes of build-up curves)
Type: binding
test-settings: KD (STD-NMR, initial slopes), proton H7, no BH4
Description: To shed more light onto the mechanism of BH4-induced inhibition of GCH1, we used saturation transfer difference (STD) NMR spectroscopy to study binding of the substrate analog 7-deaza-GTP to GCH1. […] We measured a series of STD build-up curves (i.e., STD effects at a constant ligand concentration but increasing saturation times) at each 7-deaza-GTP concentration for the protons H7 and H1′ of the substrate analog. […]
result-type: Kd (µM)
// note: answer is a bare numeric in µM

# query: Kd of entry Nc1nc2c(ccn2C2OC(COP(=O)(O)OP(=O)(O)OP(=O)(O)O)C(O)C2O)c(=O)[nH]1 (stereo not shown) [7-deaza-GTP]
977

* * *

system-name: GCH1 (Homo sapiens, UniProt P30793)
Construct: The hGCH1 (42-250, N-terminal 6xHis Tag and TEV cleavage site); 6xHis (N); TEV cleavage site (N); made in house; host or cells: E. coli BL21(DE3)
assay-method-text: STD-NMR titration of 7-deaza-GTP to GCH1 (initial slopes of build-up curves)
Assay type: binding
test-settings: KD (STD-NMR, initial slopes), proton H1', no BH4
result-type: Kd (µM)
Value expressed in µM; do not type the unit.

Form field: reported Kd of Nc1nc2c(ccn2C2OC(COP(=O)(O)OP(=O)(O)OP(=O)(O)O)C(O)C2O)c(=O)[nH]1 (stereo not shown)
326
